Assay: modulation of TERT promoter-driven luciferase – cell-based, luciferase reporter, human, primary screen (AID 1259240)
Settings: A2780 TERT promoter luciferase reporter, 16 h; at 20 µM, fold versus average of vehicle-only wells
Calls of active or inactive are those of the source. Cut-off read from the data, not from the text of the source: active = fold change mostly below about -2 (no sharp cut-off); inactive = mostly above about -1.8.
Labels: active, inactive

# COMPOUND, ASSIGNED_CLASS
rows = [
    ("O=C(Cn1c(=O)c(C(F)(F)F)nc2ccccc21)N1CCCC1", "inactive"),
    ("Cc1cc(C)n(-c2nc3ccccc3n3cnnc23)n1", "inactive"),
    ("Cc1ccccc1-c1nc(CSCC(=O)O)c(C)o1", "inactive"),
    ("CC1CCCCC1NC(=O)CN(C)S(=O)(=O)c1ccc2c(c1)CCC(=O)N2 (stereo not drawn)", "inactive"),
    ("O=C(NCCCN1CCCC1)C(=O)Nc1ccc2nc3n(c(=O)c2c1)CCCCC3", "inactive"),
    ("COC(=O)c1sc2ccccc2c1N", "inactive"),
    ("Cc1ccc(C2C3=C(CC(C)(C)CC3=O)Nc3ncnn32)cc1 (stereo not drawn)", "inactive"),
    ("CCOC(=O)C1CCCN(c2c(NCCCN3CCN(C)CC3)c(=O)c2=O)C1 (stereo not drawn)", "inactive"),
    ("CC1CCC[C@@H](C)N1C(=O)Cc1ccc(NC2=NC3CS(=O)(=O)CC3S2)cc1 (stereo partly drawn)", "inactive"),
    ("COc1ccccc1Nc1nc(N)nc(CN2CCN(C)CC2)n1", "active"),
    ("CN1C(=O)/C(=C/c2cn(CC(=O)N3CCCCC3)c3ccccc23)c2ccccc21", "inactive"),
    ("O=C1N=C(N2CCOCC2)S/C1=C1\\C(=O)N(Cc2ccccc2)c2ccccc21", "active"),
    ("Nc1ccc(-c2nc3cc(N)c(Cl)cc3[nH]2)cc1", "active"),
    ("CCCCN(CC)CCNS(=O)(=O)c1cccc2cccnc12", "inactive"),
    ("CCOc1ccc2[nH]c(C)c(CN3CC4(C)CC3CC(C)(C)C4)c(=O)c2c1 (stereo not drawn)", "inactive"),
    ("Cn1c2ccccc2c2c(C(=O)Nc3ccccc3F)cn(C3CCCC3)c(=O)c21", "inactive"),
    ("O=S(=O)(NCc1ccc2c(c1)OCO2)c1cccc2cccnc12", "inactive"),
    ("Cc1cc(C)n2c(NC(C)C)c(-c3ccc(C)o3)nc2n1", "inactive"),
    ("COc1ccc(-c2cc(N)n(S(=O)(=O)c3ccc([N+](=O)[O-])cc3)n2)cc1OC", "inactive"),
    ("CN1CCN(CCCNC(=O)Cn2ncc3c4ccccc4n(C)c3c2=O)CC1", "inactive"),
    ("Brc1c(C[n+]2ccccc2)nc2ccccn12", "inactive"),
    ("CCN(CC)CCNc1nc2c(c(=O)[nH]c(=O)n2C)n1Cc1ccccc1Cl", "inactive"),
    ("Cc1ccc(Cl)cc1N1C(=O)Nc2ccccc2N1O", "inactive"),
]

* * *

Test: modulation of TERT promoter-driven luciferase – cell-based, luciferase reporter, human, primary screen (AID 1259240)
Conditions: A2780 TERT promoter luciferase reporter, 16 h; at 20 µM, fold versus average of vehicle-only wells
// values below are reported fold change
REPORTED_ENDPOINT: fold change

# COMPOUND, REPORTED_ENDPOINT, TEST_VALUE
measured = [
    ("NC(=O)C1CCN(C(=O)N2c3ccccc3Sc3ccccc32)CC1", "fold change", -2.9),
    ("CS(=O)(=O)N1N=C(c2cccs2)CC1c1ccccc1F (stereo unspecified)", "fold change", -1.2),
    ("CCOC(=O)N1CCN(c2c(NC3CCCCCC3)c(=O)c2=O)CC1", "fold change", -1.07),
    ("Cc1ccc(C(C)C)cc1OCC(O)Cn1cnc2ccccc21 (stereo unspecified)", "fold change", -1.17),
    ("COc1ccc2cc(S(=O)(=O)c3ccc(Cl)cc3)c(=O)oc2c1", "fold change", -2.33),
    ("Cn1c(=O)c(=O)n(C)c2cc(S(=O)(=O)N3CCCC3C(=O)Nc3nccs3)ccc21 (stereo unspecified)", "fold change", 1.15),
]

* * *

Test: modulation of TERT promoter-driven luciferase – cell-based, luciferase reporter, human, primary screen (AID 1259240)
Settings: A2780 TERT promoter luciferase reporter, 16 h; at 20 µM, fold versus average of vehicle-only wells
// values below are reported fold change

# SMI, fold change
rows = [
    ("COc1ccc(Nc2c(-c3c[nH]c4ccccc34)nc3cnccn23)cc1", -1.09),
    ("CCc1c(C)sc(NC(=O)c2cc(C)no2)c1C#N", 1.32),
    ("CCOc1ccc(-n2c(C)c(C(C)=O)c3cc(OCC(N)=O)ccc32)cc1", -1.01),
    ("Cn1c(=O)c2c(SCC(=O)Nc3ccc([N+](=O)[O-])cc3)nc(-c3ccc(F)cc3)nc2n(C)c1=O", 1.08),
    ("CCOC(=O)Cn1c(=O)oc2cc(S(=O)(=O)NC3CCN(C(=O)OCC)CC3)ccc21", 1.58),
    ("Cc1cc(NC(=O)CSCc2nc(-c3cccc(F)c3)oc2C)no1", 1.06),
    ("CC1CCN(c2nnc(NC(=O)Nc3ccc(F)cc3)s2)CC1", -1.1),
    ("CN(C)c1nc(C(=O)OCCO)nc(N(C)C)n1", -3.45),
    ("CCOC(=O)C1CCN(c2c(N(C)C3CCCCC3)c(=O)c2=O)CC1", 1.32),
    ("c1ccc(CN2CCN(c3nnc(Cc4cccnc4)c4ccccc34)CC2)cc1", 1.04),
]

* * *

Test: modulation of TERT promoter-driven luciferase – cell-based, luciferase reporter, human, primary screen (AID 1259240)
Details: A2780 TERT promoter luciferase reporter, 16 h; at 20 µM, fold versus average of vehicle-only wells
The source made the active and inactive calls. Cut-off read from the data, not from the text of the source: active = fold change mostly below about -2 (no sharp cut-off); inactive = mostly above about -1.8.
Labels: active, inactive

# MOLECULE, ASSIGNED_CLASS
rows = [
    ("CC1Cc2ccccc2N1S(=O)(=O)c1cccc2cccnc12 (configuration not stated)", "active"),
    ("COc1ccc2c(=O)c(Oc3ccc(C)cc3)c(C(F)(F)F)oc2c1", "inactive"),
    ("Cc1nnc(SCc2nc(-c3ccc(Cl)cc3)no2)n1-c1ccccc1", "inactive"),
    ("c1cnc2c(SCc3cn4ccccc4n3)cccc2c1", "inactive"),
    ("CC1CCCC(NC(=O)CN(C)S(=O)(=O)c2ccc3c(c2)CCC(=O)N3)C1C (configuration not stated)", "inactive"),
    ("CCOC(=O)N1CCC(Nc2c(N3CCN(c4ccccc4F)CC3)c(=O)c2=O)CC1", "inactive"),
    ("COc1ccc(/C=c2\\sc3nc(-c4cc(OC)c(OC)c(OC)c4)nn3c2=O)c(OC)c1", "inactive"),
    ("CC(C)(C)NC(=O)CSc1nc(-c2ccc(F)cc2)cc(C(F)(F)F)n1", "inactive"),
    ("c1ccc2c(c1)OCC(CNc1nnc(Cc3ccncc3)c3ccccc13)O2 (configuration not stated)", "inactive"),
    ("CN(C)CCCN1C(=O)CSC1c1ccccc1 (configuration not stated)", "inactive"),
    ("c1ccc2c(c1)CCN2c1nnc(Cc2ccncc2)c2ccccc12", "inactive"),
    ("CCc1ccc(C2C3=C(CC(C)(C)CC3=O)NC3=C2C(=O)c2ccccc23)cc1 (configuration not stated)", "active"),
    ("CC(C)Oc1ccc(C2CC(=O)Nc3cc4c(cc32)OCCO4)cc1 (configuration not stated)", "inactive"),
    ("CCCCNC(=O)CCN1C(=O)c2ccccc2S1(=O)=O", "inactive"),
    ("COc1ccc(S(=O)(=O)n2nc(-c3ccc(Cl)cc3)cc2N)cc1OC", "inactive"),
    ("O=C(Cn1c(=O)oc2cc(S(=O)(=O)NC3CCCC3)ccc21)N1CCCC1", "inactive"),
    ("O=C(CSc1nc(-c2ccc(F)cc2)cc(C(F)(F)F)n1)NCCCn1ccnc1", "inactive"),
    ("O=C(Cn1c(=O)n(Cc2ccco2)c(=O)c2ccccc21)Nc1ccc(Cl)cc1Cl", "inactive"),
    ("CCCN(CCC)S(=O)(=O)c1ccc2c(c1)oc(=O)n2CC(=O)OCC", "inactive"),
    ("CN(C)CCNC(=O)C(=O)Nc1ccc2nc3n(c(=O)c2c1)CCCCC3", "inactive"),
    ("O=C1Nc2ccccc2/C1=C\\c1cn(CC(=O)N2CCCC2)c2ccccc12", "inactive"),
    ("CCCc1nnc2n1Nc1nc3ccccc3nc1S2", "inactive"),
]

* * *

Assay: modulation of TERT promoter-driven luciferase – cell-based, luciferase reporter, human, primary screen (AID 1259240)
Conditions: A2780 TERT promoter luciferase reporter, 16 h; at 20 µM, fold versus average of vehicle-only wells
Calls of active or inactive are those of the source. No stated cut-off is given here; in the data, active means fold change mostly below about -2 (no sharp cut-off); inactive means mostly above about -1.8.
Labels: active, inactive

# COMPOUND, ASSIGNED_CLASS
records = [
    ("CCN1CCN(C(=O)C2CCN(S(=O)(=O)c3ccc4c(c3)oc(=O)n4C)CC2)CC1", "inactive"),
    ("O=C(CSc1ncnc2ccccc12)NC1CCCCC1", "inactive"),
    ("CCOC(=O)C1CCCN(c2c(NCCCN3CC(C)CC(C)C3)c(=O)c2=O)C1 (configuration not stated)", "inactive"),
    ("CCOC(=O)N1CCC(Nc2c(N3CCCCC3C)c(=O)c2=O)CC1 (configuration not stated)", "inactive"),
    ("Cc1nc2cc(-c3ccccc3)nn2c(C)c1CCC(=O)NC(C)CCc1ccco1 (configuration not stated)", "active"),
    ("CCc1nc(N)c(C#N)c(-c2cccnc2)c1C", "active"),
    ("Cc1cc(Cl)ccc1OCc1nc(-c2ccc(-n3cccc3)cc2)no1", "inactive"),
    ("CCN1C(=O)C(O)(CC(=O)c2ccc(Br)s2)c2ccccc21 (configuration not stated)", "inactive"),
    ("COc1cc2c(cc1OC)C(c1ccc(C)c(Br)c1)CC(=O)N2 (configuration not stated)", "inactive"),
    ("Cn1c2ccccc2c2cnn(CC(=O)NCCc3c[nH]c4ccccc34)c(=O)c21", "inactive"),
    ("CCN(CCO)CCNc1cc(N2CCCC(C)C2)c2noc3c2c1C(=O)c1ccccc1-3 (configuration not stated)", "active"),
    ("CN1CCc2c(sc3c2C(=O)NC(c2ccc(OC(=O)c4ccccc4Cl)cc2)N3)C1 (configuration not stated)", "inactive"),
    ("O=C(CC1(O)C(=O)Nc2ccccc21)c1cc2ccccc2o1 (configuration not stated)", "inactive"),
    ("O=C1c2cccnc2C(=O)N1CNc1ccccn1", "inactive"),
    ("CCN(CC)c1ccc2cc(C(=O)O)c(=O)oc2c1", "inactive"),
    ("CCOC(=O)c1c(CN2CCOCC2)oc2ccc(OC)cc12", "inactive"),
    ("CCOc1ccc2c(c1)CN(c1ccc(Cl)cc1)CO2", "inactive"),
    ("CCN1C(=O)N/C(=C/c2cn(CC(=O)Nc3ccc(Cl)cc3)c3ccccc23)C1=O", "inactive"),
    ("COc1ccc(OC)c(NC(=O)CSc2nc(-c3cccs3)nc3c2c(=O)n(C)c(=O)n3C)c1", "inactive"),
    ("COc1ccc(N2CN=c3s/c(=C4\\C(=O)N(C)c5ccccc54)c(=O)n3C2)cc1", "inactive"),
    ("Cn1c2ccccc2c2cnn(CC(=O)N3CCN(c4ccccn4)CC3)c(=O)c21", "inactive"),
    ("Cc1ccn2c(NC(=O)CC(C)C)c(-c3ccc(F)cc3)nc2c1", "active"),
]
